system: HL-60(TB) leukemia; assay: NCI-60 one-dose screen, 48 h; settings: 10 µM unless noted
This is part of a sample that, as a whole, favours compounds with a hit. Of some 83,000 tested, about 20% had one in any assay. Activity calls are given as the source filed them. The calls were made as follows: active = growth percent below 10; inactive = the rest.
// classify into t = active, f = inactive

The examples below pair each entry with its known result.
[
  {
    "compound": "Cc1[c-]onc1C.Cc1[c-]onc1C.[Ag].[Ag].[NH-]S(=O)(=O)c1ccc(N=Nc2cc(N=Nc3ccc(S([NH-])(=O)=O)cc3)c3c(NC(=O)C(Cl)Cl)cccc3c2OC(=O)C(Cl)Cl)cc1",
    "group": "f"
  },
  {
    "compound": "COc1ccc(-c2nc3cc(C(=O)NCc4ccccc4)ccc3n2C2CCCCC2)cc1",
    "group": "f"
  }
]

Req: Please let me know the test result on file for C=C1C(=O)O[C@H]2[C@H]1CC/C(COC(=O)C(=O)c1cn(C)c3ccc(Cl)cc13)=C\CC[C@@]1(C)O[C@@H]21 .
Resp: t

Req: Please let me know the test result on file for Cc1cc(N(CCCNc2ccnc3cc(Cl)ccc23)Cc2cccs2)nc(Cl)n1 .
Resp: t

Req: Please let me know the test result on file for Cc1ccc(S(=O)(=O)Oc2ccc([N+](=O)[O-])cc2[N+](=O)[O-])cc1 .
Resp: f

Req: Please let me know the test result on file for Cc1ccc(NC(=O)COC(=O)c2ccc(S(=O)(=O)N3CCCCCC3)cc2)cc1 .
Resp: f

Req: Please let me know the test result on file for O=C(N/N=C\c1cc(Cl)ccc1O)c1ccncc1 .
Resp: t

Req: Please let me know the test result on file for COc1ccc(-c2nocc2-c2cccs2)cc1 .
Resp: f

Req: Please let me know the test result on file for C=C(C(N)=O)C(N)C(=O)O (stereo not given) .
Resp: f

Req: Please let me know the test result on file for COc1cc(N2C(=O)[C@H](O)C2c2ccc(SC)cc2)cc(OC)c1OC (stereo not given in full) .
Resp: t
